Target: T1, TGFβ2 (transforming growth factor beta 2) (Homo sapiens, UniProt P61812 SEQ:1-112)
T1 sequence: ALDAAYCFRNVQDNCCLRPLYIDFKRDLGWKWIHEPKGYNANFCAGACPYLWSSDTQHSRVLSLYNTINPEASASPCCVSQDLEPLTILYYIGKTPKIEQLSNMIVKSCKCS
Experiment: filter
Conditions: chain copies: 2 (inferred, homodimer)
Exercise: state measured binding signal for each of the binders provided.

Past entries and their recorded results:
binder	binding signal
GGAGGUUAUUACAGAGUCUGUAUAGCUGUACUCC (ssRNA, 2'-F C and U; 2'-OMe at lowercase a,g of GGAGgUUaUUaCAGAGUCUGUAUAGCUGUACUCC; 3'-3' dT) [NX22357]	2 x Kd of NX22284
GGAGGUUAUUACAGAGUCUGUAUAGCUGUACUCC (ssRNA, 2'-F C and U; 2'-OMe at lowercase a,g of ggagGUUAUUACAGAGUCUGUAUAGCuGUACUCC; 3'-3' dT) [NX22356]	1 x Kd of NX22284
GGAGGUUAUUACAGAGUCUGUAUAGCUGUACUCC (ssRNA, 2'-F C and U; 2'-OMe at lowercase a,g of GGAGGUUAUUACagagUCUGUAUAGCUGUACUCC; 3'-3' dT) [NX22358]	1 x Kd of NX22284

Query string: What value of binding signal has been reported for the following binder? GGAGGUUAUUACAGAGUCUGUAUAGCUGUACUCC (ssRNA, 2'-F C and U; 2'-OMe at all purines except A8, G20, A22, A24; 3'-3' dT) [NX22420]
Result string: 1 x Kd of NX22284
